# Tested on: water seeded rice seedlings (Oryza sativa cv. ‘Japonica-M202’)
# ASSAY PROTOCOL: Test E flooded paddy water application
# Assay type: in vivo
# MEASUREMENT PARAMETERS: 250 g ai/ha; Flood; 21 days; scale 0 to 100 (0 no effect, 100 complete control)
# Text: Three plastic pots (ca. 16-cm diameter) per rate were partially filled with sterilized Tama silt loam soil comprising a 35:50:15 ratio of sand, silt and clay and 2.6% organic matter. Separate plantings for each of the three pots were as follows. Seeds from the U.S. of ducksalad (Heteranthera limosa), smallflower umbrella sedge (Cyperus difformis) and purple redstem (Ammannia coccinea), were planted into one 16-cm pot for each rate. […]
REPORTED ENDPOINT: Rice, Water Seeded plant response rating
Answers are plain numbers.

Would you please look over these solved cases?
>>> df
                            smiles_text  measured_number
0    COC(=O)c1nc(-c2ccc(I)cc2)nc(N)c1Br                0
1   Cc1ccc(-c2nc(N)c(Cl)c(C(=O)O)n2)cc1               20
2  CCOC(=O)c1nc(-c2ccc(Br)cc2)nc(N)c1Cl               10
3    COC(=O)c1nc(-c2ccc(C)cc2)nc(N)c1Cl               30
4  CCOC(=O)c1nc(-c2ccc(Cl)cc2)nc(N)c1Br                0

Enquiry: Report Rice, Water Seeded plant response rating for CCOC(=O)c1nc(-c2ccc(C)c(C)c2)nc(N)c1Cl please.
Return: 0
